- system-tested: Melanocortin receptor 5 (Homo sapiens)
- measurement-protocol: Displacement of [125I][Nle4,D-Phe7]alpha-MSH from human MC5 receptor expressed in HEK293 cells
pIC50: −log10 of the molar value.
reported-metric: pIC50

>>> assay_result("NC(=O)[C@@H]1CCCCNC(=O)CCCC(=O)N2CCC[C@H]2C(=O)N[C@H](Cc2ccccc2)C(=O)N[C@@H](CCCN=C(N)N)C(=O)N[C@@H](Cc2c[nH]c3ccccc23)C(=O)N1")
6.06
>>> assay_result("NC(=O)[C@@H]1CCCCNC(=O)CCCC(=O)N2CCC[C@H]2C(=O)N[C@H](Cc2ccc3ccccc3c2)C(=O)N[C@@H](CCCN=C(N)N)C(=O)N[C@@H](Cc2c[nH]c3ccccc23)C(=O)N1")
7.57

[1] N=C(N)NCCC[C@@H]1NC(=O)[C@@H](Cc2ccccc2)NC(=O)[C@@H]2CCCN2C(=O)/C=C\C(=O)NCCCC[C@@H](C(N)=O)NC(=O)[C@H](Cc2c[nH]c3ccccc23)NC1=O
[2] N=C(N)NCCC[C@@H]1NC(=O)[C@@H](Cc2ccc3ccccc3c2)NC(=O)[C@@H]2CCCN2C(=O)/C=C\C(=O)NCCCC[C@@H](C(N)=O)NC(=O)[C@H](Cc2c[nH]c3ccccc23)NC1=O
[3] N=C(N)NCCC[C@@H]1NC(=O)[C@@H](Cc2ccc3ccccc3c2)NC(=O)[C@@H]2CCCN2C(=O)c2ccccc2C(=O)NCCCC[C@@H](C(N)=O)NC(=O)[C@H](Cc2c[nH]c3ccccc23)NC1=O
Prompt: List items by pIC50 in falling order. In your reply, arrange the labels in the requested order.
Completion: 2, 3, 1
(2: 6.92, 3: 6.68, 1: 6.10)

* * *

- system-tested: Melanocortin receptor 5 (Homo sapiens, UniProt P33032)
- Sequence (P33032 whole entry): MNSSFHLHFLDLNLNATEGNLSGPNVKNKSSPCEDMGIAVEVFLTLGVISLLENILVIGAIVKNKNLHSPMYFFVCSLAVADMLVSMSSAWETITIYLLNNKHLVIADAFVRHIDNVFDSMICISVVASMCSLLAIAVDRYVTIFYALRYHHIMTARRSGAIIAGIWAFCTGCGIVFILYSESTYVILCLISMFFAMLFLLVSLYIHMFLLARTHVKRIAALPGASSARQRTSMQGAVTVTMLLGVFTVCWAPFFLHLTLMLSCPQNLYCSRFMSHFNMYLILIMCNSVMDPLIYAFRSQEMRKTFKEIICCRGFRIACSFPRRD
- measurement-protocol: Agonist activity at human MC5 receptor expressed in HEK293 cells assessed as intracellular cAMP accumulation at 10 uM
- Format: functional, cell-based
reported-metric: Activity (%)

>>> assay_result("N=C(N)NCCC[C@@H]1NC(=O)[C@@H](Cc2ccc3ccccc3c2)NC(=O)[C@@H]2CCCN2C(=O)/C=C\\C(=O)NCCCC[C@@H](C(N)=O)NC(=O)[C@H](Cc2c[nH]c3ccccc23)NC1=O")
0
>>> assay_result("N=C(N)NCCC[C@@H]1NC(=O)[C@@H](Cc2ccccc2)NC(=O)c2cccc(n2)C(=O)NCCCC[C@@H](C(N)=O)NC(=O)[C@H](Cc2c[nH]c3ccccc23)NC1=O")
0
>>> assay_result("N=C(N)NCCC[C@@H]1NC(=O)[C@@H](Cc2ccc3ccccc3c2)NC(=O)[C@@H]2CCCN2C(=O)c2ccccc2C(=O)NCCCC[C@@H](C(N)=O)NC(=O)[C@H](Cc2c[nH]c3ccccc23)NC1=O")
0

* * *

- system-tested: Melanocortin receptor 5 (Homo sapiens)
- measurement-protocol: Displacement of [125I][Nle4,D-Phe7]alpha-MSH from human MC5 receptor expressed in HEK293 cells
// reported IC50 per item
# value in nM; strip the unit string

>>> assay_result("NC(=O)[C@@H]1CCCCNC(=O)c2nccnc2C(=O)N[C@H](Cc2ccc3ccccc3c2)C(=O)N[C@@H](CCCN=C(N)N)C(=O)N[C@@H](Cc2c[nH]c3ccccc23)C(=O)N1")
230
>>> assay_result("CCCC[C@@H]1NC(=O)CCC(=O)NCCCC[C@@H](C(N)=O)NC(=O)[C@H](Cc2c[nH]c3ccccc23)NC(=O)[C@H](CCCN=C(N)N)NC(=O)[C@@H](Cc2ccccc2)NC1=O")
520

Prompt: Requested read-out: IC50. Entry: `CCCC[C@@H]1NC(=O)CCC(=O)NCCCC[C@@H](C(N)=O)NC(=O)[C@H](Cc2c[nH]c3ccccc23)NC(=O)[C@H](CCCN=C(N)N)NC(=O)[C@@H](Cc2ccc3ccccc3c2)NC1=O`
Completion: 17

* * *

- system-tested: Melanocortin receptor 5 (Homo sapiens)
- measurement-protocol: Agonist activity at human MC5 receptor expressed in HEK293 cells assessed as intracellular cAMP accumulation
Recorded EC50, one value per entry.
Give the value, in units of nM, as a plain number.

>>> assay_result("NC(=O)[C@@H]1CCCCNC(=O)CCCC(=O)N2CCC[C@H]2C(=O)N[C@H](Cc2ccc3ccccc3c2)C(=O)N[C@@H](CCCN=C(N)N)C(=O)N[C@@H](Cc2c[nH]c3ccccc23)C(=O)N1")
23

Now take the following compound into account.
Prompt: Bench note: what EC50 did `NC(=O)[C@@H]1CCCCNC(=O)CCCC(=O)N2CCC[C@H]2C(=O)N[C@H](Cc2ccccc2)C(=O)N[C@@H](CCCN=C(N)N)C(=O)N[C@@H](Cc2c[nH]c3ccccc23)C(=O)N1` show?
Completion: 570

* * *

- system-tested: Melanocortin receptor 4 (Homo sapiens)
- Sequence (P32245 whole entry): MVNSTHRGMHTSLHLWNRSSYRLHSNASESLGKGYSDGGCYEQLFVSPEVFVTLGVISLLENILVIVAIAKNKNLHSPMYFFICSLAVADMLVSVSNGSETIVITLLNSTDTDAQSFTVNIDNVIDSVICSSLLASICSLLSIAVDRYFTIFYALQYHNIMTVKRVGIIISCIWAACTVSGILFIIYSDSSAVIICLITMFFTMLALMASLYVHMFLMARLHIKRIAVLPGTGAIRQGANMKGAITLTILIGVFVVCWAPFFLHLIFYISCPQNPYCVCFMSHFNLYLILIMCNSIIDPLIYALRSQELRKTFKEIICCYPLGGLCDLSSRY
- measurement-protocol: Agonist activity at human MC4 receptor expressed in HEK293 cells assessed as intracellular cAMP accumulation
pEC50: −log10 of the molar value.
reported-metric: pEC50

Prompt: Consider the compound `NC(=O)[C@@H]1CCCCNC(=O)CCCC(=O)N2CCC[C@H]2C(=O)N[C@H](Cc2ccccc2)C(=O)N[C@@H](CCCN=C(N)N)C(=O)N[C@@H](Cc2c[nH]c3ccccc23)C(=O)N1` and give its measured pEC50.
Completion: < 5.70

* * *

- system-tested: Melanocyte-stimulating hormone receptor (Homo sapiens)
- Sequence (Q01726 whole entry): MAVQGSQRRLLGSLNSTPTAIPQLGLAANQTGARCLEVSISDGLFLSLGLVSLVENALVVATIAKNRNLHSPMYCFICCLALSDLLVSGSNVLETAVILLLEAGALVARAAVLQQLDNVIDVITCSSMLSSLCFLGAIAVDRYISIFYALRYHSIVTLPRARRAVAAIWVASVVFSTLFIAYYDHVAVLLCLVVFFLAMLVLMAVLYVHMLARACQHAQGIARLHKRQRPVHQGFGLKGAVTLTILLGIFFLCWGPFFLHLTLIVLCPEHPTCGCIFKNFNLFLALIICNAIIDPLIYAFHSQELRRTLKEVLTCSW
- measurement-protocol: Displacement of [125I][Nle4,D-Phe7]alpha-MSH from human MC1 receptor expressed in HEK293 cells
IC50 listing for selected compounds.

Worked examples follow.
>>> assay_result("N=C(N)NCCC[C@@H]1NC(=O)[C@@H](Cc2ccccc2)NC(=O)[C@@H]2CCCN2C(=O)/C=C\\C(=O)NCCCC[C@@H](C(N)=O)NC(=O)[C@H](Cc2c[nH]c3ccccc23)NC1=O")
"> 10 µM"
>>> assay_result("N=C(N)NCCC[C@@H]1NC(=O)[C@@H](Cc2ccc3ccccc3c2)NC(=O)[C@@H]2CCCN2C(=O)c2ccccc2C(=O)NCCCC[C@@H](C(N)=O)NC(=O)[C@H](Cc2c[nH]c3ccccc23)NC1=O")
"0.41 µM"
>>> assay_result("N=C(N)NCCC[C@@H]1NC(=O)[C@@H](Cc2ccccc2)NC(=O)c2nccnc2C(=O)NCCCC[C@@H](C(N)=O)NC(=O)[C@H](Cc2c[nH]c3ccccc23)NC1=O")
"0.412 µM"
>>> assay_result("NC(=O)[C@@H]1CCCCNC(=O)CCCC(=O)N2CCC[C@H]2C(=O)N[C@H](Cc2ccccc2)C(=O)N[C@@H](CCCN=C(N)N)C(=O)N[C@@H](Cc2c[nH]c3ccccc23)C(=O)N1")
"> 10 µM"
>>> assay_result("NC(=O)[C@@H]1CCCCNC(=O)c2cccc(n2)C(=O)N[C@H](Cc2ccc3ccccc3c2)C(=O)N[C@@H](CCCN=C(N)N)C(=O)N[C@@H](Cc2c[nH]c3ccccc23)C(=O)N1")
"> 10 µM"
>>> assay_result("N=C(N)NCCC[C@@H]1NC(=O)[C@@H](Cc2ccccc2)NC(=O)c2cccc(n2)C(=O)NCCCC[C@@H](C(N)=O)NC(=O)[C@H](Cc2c[nH]c3ccccc23)NC1=O")
"> 10 µM"
>>> assay_result("CCCC[C@@H]1NC(=O)CCC(=O)NCCCC[C@@H](C(N)=O)NC(=O)[C@H](Cc2c[nH]c3ccccc23)NC(=O)[C@H](CCCN=C(N)N)NC(=O)[C@@H](Cc2ccc3ccccc3c2)NC1=O")
"2 µM"
>>> assay_result("NC(=O)[C@@H]1CCCCNC(=O)c2nccnc2C(=O)N[C@H](Cc2ccc3ccccc3c2)C(=O)N[C@@H](CCCN=C(N)N)C(=O)N[C@@H](Cc2c[nH]c3ccccc23)C(=O)N1")
"0.707 µM"

Prompt: Would you kindly share the measured IC50 for `N=C(N)NCCC[C@@H]1NC(=O)[C@@H](Cc2ccccc2)NC(=O)[C@@H]2CCCN2C(=O)c2ccccc2C(=O)NCCCC[C@@H](C(N)=O)NC(=O)[C@H](Cc2c[nH]c3ccccc23)NC1=O` ?
Completion: > 10 µM

Prompt: Query: IC50; subject: `CCCC[C@@H]1NC(=O)CCC(=O)NCCCC[C@@H](C(N)=O)NC(=O)[C@H](Cc2c[nH]c3ccccc23)NC(=O)[C@H](CCCN=C(N)N)NC(=O)[C@@H](Cc2ccccc2)NC1=O`
Completion: > 10 µM

Prompt: I am curious: what IC50 value has been reported for `N=C(N)NCCC[C@@H]1NC(=O)[C@@H](Cc2ccc3ccccc3c2)NC(=O)[C@@H]2CCCN2C(=O)/C=C\C(=O)NCCCC[C@@H](C(N)=O)NC(=O)[C@H](Cc2c[nH]c3ccccc23)NC1=O` ?
Completion: > 10 µM

Prompt: Look up IC50 for this compound: `NC(=O)[C@@H]1CCCCNC(=O)CCCC(=O)N2CCC[C@H]2C(=O)N[C@H](Cc2ccc3ccccc3c2)C(=O)N[C@@H](CCCN=C(N)N)C(=O)N[C@@H](Cc2c[nH]c3ccccc23)C(=O)N1`
Completion: > 10 µM
